Relative Activity (Cytotoxicity-neutralizing activity) (fold) listing for selected binders.
Target: TNF-α (UniProt P01375 77-233, limits assumed)
Sequence (P01375 77-233 limits assumed): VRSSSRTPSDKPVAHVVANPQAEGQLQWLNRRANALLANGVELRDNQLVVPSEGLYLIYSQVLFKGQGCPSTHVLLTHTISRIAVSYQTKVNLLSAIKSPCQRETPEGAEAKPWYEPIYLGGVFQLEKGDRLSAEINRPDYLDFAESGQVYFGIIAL
Experiment: cell-based or functional assay
OBSERVED PROPERTY: Relative Activity (Cytotoxicity-neutralizing activity) (fold)

BINDER | QUANTITY UNIT | ENDPOINT RESULT
TNFRI171-A30 (receptor) MDSVCPQGKYIHPQNNSICCTKCHKGTYLYNDCPGPGQDTDCRECESGSFTAIPNFLPACLSCSKCRKEMGQVEISSCTVDRDTVCGCRKNQYRHYWSENLFQCFNCSLCLNGTVHLSCQEKQNTVCTCHAGFFLRENECVSCSNCKKSLECTKLCLPQIENVKGTEDSGTT | fold | 127
TNFRI171-A26 (receptor) MDSVCPQGKYIHPQNNSICCTKCHKGTYLYNDCPGPGQDTDCRECESGSFTAIPNFLPGCLSCSKCRKEMGQVEISSCTVDRDTVCGCRKNQYRHYWSENLFQCFNCSLCLNGTVHLSCQEKQNTVCTCHAGFFLRENECVSCSNCKKSLECTKLCLPQIENVKGTEDSGTT | fold | 196
TNFRI171-A2 (receptor) MDSVCPQGKYIHPQNNSICCTKCHKGTYLYNDCPGPGQDTDCRECESGSFTAIENFLPACLSCSKCRKEMGQVEISSCTVDRDTVCGCRKNQYRHYWSENLFQCFNCSLCLNGTVHLSCQEKQNTVCTCHAGFFLRENECVSCSNCKKSLECTKLCLPQIENVKGTEDSGTT | fold | 207
Met-TNFRI171 (receptor, also called Wild-type (TNFRI171); wild-type TNFRI) MDSVCPQGKYIHPQNNSICCTKCHKGTYLYNDCPGPGQDTDCRECESGSFTASENHLRHCLSCSKCRKEMGQVEISSCTVDRDTVCGCRKNQYRHYWSENLFQCFNCSLCLNGTVHLSCQEKQNTVCTCHAGFFLRENECVSCSNCKKSLECTKLCLPQIENVKGTEDSGTT | fold | 1

This collection of values is drawn from patent US20120277142A1.
